System: M14 melanoma
Experiment: NCI tumour cell line growth inhibition, 48 h
QUANTITY_KIND: TGI

Reported TGI for NC(=O)C(=O)c1ncn(Cc2ccccc2)c1N was > 100 µM

Reported TGI for O=c1[nH]nc(Cc2ccc(Cl)cc2)n1/N=C/c1ccco1 was > 100 µM

Reported TGI for Cc1cc(=O)[nH]c(N/N=C/c2cc(Br)ccc2O)n1 was > 100 µM

Reported TGI for CC12OOC(c3ccccc31)c1c2ccc2ccccc12 (stereo not given) was 22.6 µM

Reported TGI for O=C(NC(Cl)(C(F)(F)F)C(F)(F)F)c1ccc(F)cc1 was > 100 µM

Reported TGI for COC(=O)c1c(C)cccc1C1CN=NC12Cc1ccccc1C2=O (stereo not given) was > 87.9 µM

Reported TGI for CSC1=Nc2c(c(C)c(-c3ccccc3)n2CCCN2CCCCC2)C2=NC(=O)C[C@H](C)N12 was 16.1 µM

Reported TGI for CCOC(=O)c1ccc2c(c1)Cc1cc([N+](=O)[O-])ccc1-2 was > 100 µM

Reported TGI for CCOC1=NC(C(F)(F)F)(C(F)(F)F)N=C(N2CCOCC2)O1 was > 100 µM

Reported TGI for CN(C)c1ccc(/C=C/c2ccnc3c(O)cccc23)cc1 was 1.58 µM

Reported TGI for COc1cc(/C=C2/SC(c3ccccc3)N(Cc3ccccc3)C2=O)cc(OC)c1OC (stereo not given) was > 100 µM

Reported TGI for CCN(CC)C(=O)Cn1c(-c2ccccc2)cc2ccccc21 was > 100 µM

Reported TGI for Cc1nc2c(c(=O)[nH]1)S/C(=C(/C#N)c1nc3ccccc3[nH]1)N2c1ccccc1 was > 100 µM

Reported TGI for CCCC(=O)NC(Nc1cc(C)ccn1)(C(=O)OCC)C(F)(F)F (stereo not given) was > 100 µM

Reported TGI for COc1cccc2ccc(C(=O)c3ccccc3)nc12 was > 100 µM

Reported TGI for CC(=O)OCC(C)C1=C(OC(C)=O)C(=O)C2(C)C/C=C(/C)CC/C=C(\C)CCC(OC(C)=O)C(C)CCC12 (stereo not given) was 34.2 µM

Reported TGI for C[n+]1c(/C=C/c2c[nH]c3ccccc23)ccc2ccccc21 was 33.2 µM

Reported TGI for CC[C@@H]1[C@@H](C)O[C@@](O)([C@@H](C)[C@H](O)[C@H](C)[C@H]2OC(=O)/C=C/C=C/[C@H](C)[C@@H]([C@@H](C)[C@@H](O)[C@H](C)[C@@]3(O)C[C@@H](O[C@H]4C[C@@H](O)[C@H](O)C(C)O4)[C@H](CC)[C@@H](C)O3)OC(=O)/C=C/C=C/[C@@H]2C)C[C@H]1O[C@@H]1C[C@@H](O)[C@H](O)C(C)O1 (stereo not given in full) was 0.142 µM

Reported TGI for CCCCCC1CC=CC(=O)O1 (stereo not given) was 26.6 µM

Reported TGI for O=C1C(Cl)N(c2cccc(Cl)c2)C1c1c[nH]c2ccccc12 (stereo not given) was > 100 µM

---

Test system: OVCAR-5 ovarian
Experiment: NCI tumour cell line growth inhibition, 48 h; in the data active = GI50 below about 0.43 µM; inactive = the rest
Hi! Could you answer with just one of these? active, inactive

Hey, what did the test say about O=C(/C=C/c1ccco1)c1cc(F)c(Cl)cc1Cl ?
inactive

Hey, what did the test say about COc1cc(/C=C2\C[C@H]3[C@@H]4CC=C5C[C@@H](O)CC[C@]5(C)[C@H]4CC[C@]3(C)[C@H]2O)ccc1OCCN1CCCC1 ?
inactive

Hey, what did the test say about CC[C@@H]1[C@@H](C)O[C@@](O)([C@@H](C)[C@H](O)[C@H](C)[C@H]2OC(=O)/C=C/C=C/[C@H](C)[C@@H]([C@@H](C)[C@@H](O)[C@H](C)[C@@]3(O)C[C@@H](O[C@H]4C[C@@H](O)[C@H](O)C(C)O4)[C@H](CC)[C@@H](C)O3)OC(=O)/C=C/C=C/[C@@H]2C)C[C@H]1O[C@@H]1C[C@@H](O)[C@H](O)C(C)O1 (stereo not given in full) ?
active

Hey, what did the test say about C[C@]12CCc3nc(Nc4cccc(O)c4)sc3C1=CC[C@@H]1[C@@H]2CC[C@]2(C)/C(=N\NC(N)=S)CC[C@@H]12 ?
inactive

Hey, what did the test say about CCOC(=O)C1=C(C)N=c2s/c(=C\c3ccccc3O)c(=O)n2C1c1ccc(OC)c2ccccc12 (stereo not given) ?
inactive

Hey, what did the test say about CCOC(=O)[C@@H](C)C[C@H](Cc1ccccc1)NC(=O)c1nc([C@@H](C[C@H](C(C)C)N(C)C(=O)[C@@H](NC(=O)[C@H]2CCCCN2C)C(C)C)OC(C)=O)sc1CCOCc1ccccc1 ?
active

Hey, what did the test say about N.N.NCCCCCN.O=C([O-])CCl.O=C([O-])CCl.O=C([O-])CCl.O=C([O-])CCl.[Pt+4].[Pt+4] ?
inactive

Hey, what did the test say about CC[C@H](NC(=O)[C@H]1CCCCN1C)C(=O)N(C)[C@H](C[C@@H](OC(C)=O)c1nc(C(=O)N[C@@H](Cc2ccccc2)C[C@H](C)C(=O)O)cs1)C(C)C ?
active

Hey, what did the test say about COc1cc([C@@H]2c3cc4c(c(O)c3C[C@H]3COC(=O)[C@@H]32)OCO4)cc(OC)c1OC ?
inactive

Hey, what did the test say about COc1ccc(N=Cc2c(O)ccc3c2oc2cc(Cl)c(O)c(Cl)c23)cc1 ?
inactive

Hey, what did the test say about C=CCC(N[C@@H](CO)c1ccccc1)c1cn(Cc2ccccc2Cl)c(=O)n(Cc2ccccc2Cl)c1=O (stereo not given in full) ?
inactive

Hey, what did the test say about NS(=O)(=O)OCC1OC(n2cnc3cncnc32)C(O)C1O (stereo not given) ?
active

Hey, what did the test say about N#Cc1c(NC(=O)NCc2ccccc2)sc2c1CCCC2 ?
inactive

Hey, what did the test say about Cc1ccc(NC(=O)c2ccc(CN3CCN(C)CC3)cc2)cc1Nc1nccc(-c2cccnc2)n1 ?
inactive

Hey, what did the test say about CCOC(=O)c1ccc(Nc2sc(C(=O)c3ccc(Br)cc3)c(N)c2C#N)cc1 ?
inactive

---

System: K-562 leukemia
Test: NCI tumour cell line growth inhibition, 48 h
QUANTITY_KIND: TGI

Reported TGI for N#C[C@H](C(=O)c1ccccc1F)c1nc2ccccc2s1 was > 100 µM

Reported TGI for Cc1cc(=O)[nH]c(N/N=C/c2cc(Br)ccc2O)n1 was > 100 µM

Reported TGI for O=C(c1ccccc1)c1ccc(N2C(=O)/C(=C/Cc3ccco3)N=C2c2ccccc2)c(N2C(=O)/C(=C/Cc3ccco3)N=C2c2ccccc2)c1 was > 100 µM

Reported TGI for COc1cc(/C=C2\C[C@H]3[C@@H]4CC=C5C[C@@H](O)CC[C@]5(C)[C@H]4CC[C@]3(C)[C@H]2O)ccc1OCCN1CCCC1 was 16.5 µM

Reported TGI for COc1ccccc1C1C(Cl)C(=O)N1n1cnc2ccccc2c1=O (stereo unspecified) was > 100 µM

Reported TGI for COc1ccc(N=Cc2c(O)ccc3c2oc2cc(Cl)c(O)c(Cl)c23)cc1 was 49.7 µM

---

System: HCC-2998 colon
Assay: NCI tumour cell line growth inhibition, 48 h
Record form. Attribute: TGI. Fill in for each entry.
Numeric answer only, unit µM assumed.

Reported TGI for CC1(C)N=C(N)N=C(N)N1c1ccc(CCCCc2ccccc2)c(Cl)c1 was 3.52

Reported TGI for CCN(CC)CCNc1ccc(C)c2sc3cc(Cl)ccc3c(=O)c12 was 3.58

Reported TGI for Cc1c2ccnc(C(=O)NCCN(C)C)c2cc2c3cc(O)ccc3n(C)c12 was 2.11

Reported TGI for COc1cc(/C=C2\C[C@H]3[C@@H]4CC=C5C[C@@H](O)CC[C@]5(C)[C@H]4CC[C@]3(C)[C@H]2O)ccc1OCCN1CCCC1 was 20.6

Reported TGI for COc1cc2c(cc1C[C@H]1[C@@H]3C[C@H]4c5c(c6ccccc6n5C)C[C@@H]([C@@H]3CO[C@]1(C)OC(C)=O)N4C)c1c(n2C)C2C[C@H]3C(C(C)=O)=COC[C@H]3[C@H](C1)N2C was 0.246

Reported TGI for COC1C(CO)OC(n2c3ccccc3c3c4c(c5c6ccccc6[nH]c5c32)C(=O)NC4=O)C(O)C1O (centres undefined) was 1.5

Reported TGI for Cc1cc(Nc2ccc(OCc3ccccc3)cc2)nc2cc(O)ccc12 was 5.18

Reported TGI for C=CCc1[nH]c2c(OCc3ccccc3)cc(N(CC=C)C(C)=O)cc2c1C was 28.4

Reported TGI for CN(C)CCCC1c2ccccc2Oc2ccc(C(F)(F)F)cc21 (centres undefined) was 4.97

Reported TGI for NCCCNc1nc2ccccc2c2c(=O)c3cc(F)cc(F)c3sc12 was 3.36

Reported TGI for NS(=O)(=O)OCC1OC(n2cnc3cncnc32)C(O)C1O (centres undefined) was 0.097

Reported TGI for c1ccc2c(CN3CCN(Cc4c[nH]c5ccccc45)CC3)c[nH]c2c1 was 3.29

Reported TGI for COc1ccc2c(c1O)-c1cc(O)cc3c1[C@@H](C2)N(C)CC3 was 139

Reported TGI for N.N.NCCCCCN.O=C([O-])CCl.O=C([O-])CCl.O=C([O-])CCl.O=C([O-])CCl.[Pt+4].[Pt+4] was 28

Reported TGI for CC(C)C1OC(N)=C(C#N)C1(C#N)C#N (centres undefined) was 58

Reported TGI for C[n+]1c(/C=C/c2c[nH]c3ccccc23)ccc2ccccc21 was 23.8

Reported TGI for OC(c1cc(-c2cccc(Cl)c2)nc2ccccc12)C1CCCCN1 (centres undefined) was 4.15
